Assignment: determine reported TGI for the given compounds.
# Test system: LOX IMVI melanoma
# Run description: NCI tumour cell line growth inhibition, 48 h
Answers are plain numbers, in µM.

These recorded examples may help you get a feel for the data.
O=C(N/N=C/c1cc(Cl)cc(Cl)c1[O-])c1ccccc1O.O=C(N/N=C/c1cc(Cl)cc(Cl)c1[O-])c1ccccc1O.[Co+2]    11.8
COc1cc2c(c(OC)c1OC)-c1ncc3c(OC)c(OC)c(OC)cc3c1C2    32.3
O=S(=O)(NC1=NCCN1C(=S)SN1CCn2c1nsc2=S)c1cccc2ccccc12    55
CCCCCCCCCCCCCCCCCC1=NC(C)(C)CN1CC(C)O (centres undefined)    3.44

Then this compound:
Qu. What value of TGI has been reported for the following compound? CCOC(=O)c1cc2cc3c4c(c2oc1=O)CCCN4CCC3
Ans. 62.7
